- MEASURED ON: T1, GDF-11 (UniProt O95390 299-407)
- T1 construct: also called Growth and Differentiation Factor-11; BMP11
- T1 sequence (looked up): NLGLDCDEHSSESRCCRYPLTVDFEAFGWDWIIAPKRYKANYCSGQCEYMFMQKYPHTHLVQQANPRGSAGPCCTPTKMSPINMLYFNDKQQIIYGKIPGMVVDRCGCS
- PROTOCOL: BiaCore (SPR); ligand amine-coupled to CM5 chip, ActRIIB-Fc injected
pKd: −log10 of the molar value.
pKd values, listed per item
ENDPOINT: pKd

1) ActRIIB-Fc K74A (Fc fusion, Mutation in the background ActRIIB-Fc) SGRGEAETRECIYYNANWELERTNQSGLERCEGEQDKRLHCYASWANSSGTIELVAKGCWLDDFNCYDRQECVATEENPQVYFCCCEGNFCNERFTHLPEAGGGTHTCPPCPAPELLGGPSVFLFPPKPKDTLMISRTPEVTCVVVDVSHEDPEVKFNWYVDGVEVHNAKTKPREEQYNSTYRVVSVLTVLHQDWLNGKEYKCKVSNKALPVPIEKTISKAKGQPREPQVYTLPPSREEMTKNQVSLTCLVKGFYPSDIAVEWESNGQPENNYKTTPPVLDSDGSFFLYSKLTVDKSRWQQGNVFSCSVMHEALHNHYTQKSLSLSPGK; 8.28
2) ActRIIB-Fc +15tail (Fc fusion, also called ActRIIB-Fc with the C-terminal 15 amino acids of the extracellular domain) SGRGEAETRECIYYNANWELERTNQSGLERCEGEQDKRLHCYASWANSSGTIELVKKGCWLDDFNCYDRQECVATEENPQVYFCCCEGNFCNERFTHLPEAGGPEVTYEPPPTAPTGGGTHTCPPCPAPELLGGPSVFLFPPKPKDTLMISRTPEVTCVVVDVSHEDPEVKFNWYVDGVEVHNAKTKPREEQYNSTYRVVSVLTVLHQDWLNGKEYKCKVSNKALPVPIEKTISKAKGQPREPQVYTLPPSREEMTKNQVSLTCLVKGFYPSDIAVEWESNGQPENNYKTTPPVLDSDGSFFLYSKLTVDKSRWQQGNVFSCSVMHEALHNHYTQKSLSLSPGK; 7.72
3) ActRIIB-Fc WT (64R) (Fc fusion, also called A64R) SGRGEAETRECIYYNANWELERTNQSGLERCEGEQDKRLHCYASWRNSSGTIELVKKGCWLDDFNCYDRQECVATEENPQVYFCCCEGNFCNERFTHLPEAGGGTHTCPPCPAPELLGGPSVFLFPPKPKDTLMISRTPEVTCVVVDVSHEDPEVKFNWYVDGVEVHNAKTKPREEQYNSTYRVVSVLTVLHQDWLNGKEYKCKVSNKALPVPIEKTISKAKGQPREPQVYTLPPSREEMTKNQVSLTCLVKGFYPSDIAVEWESNGQPENNYKTTPPVLDSDGSFFLYSKLTVDKSRWQQGNVFSCSVMHEALHNHYTQKSLSLSPGK; 7.07

Just for reference, patent US20060068468A1 is where these values come from.
